Value source: patent US10011607B2

target: human mGlu4 receptor (Homo sapiens (Human)); test: Ca2+ mobilization in vitro assay on recombinant human mGlu4 expressed in HEK293 cells (PAM); assay type: cell-based; settings: HEK293; maximal response in % of maximal stimulatory effect of saturating L-AP4; read-out: Eff. (%)
Exercise: state measured Emax for each of the compounds provided.
Report only the number, with the unit % understood.

## Task Give the measured Emax of `C[C@@]12CC(=O)N(c3c(F)cc(C#Cc4ccccc4)cc3F)C(=O)N1CCN(c1cn[nH]c1)C2=O` .
## Result 182

## Task Give the measured Emax of Cc1nccc(N2CCN3C(=O)N(c4c(F)cc(C#Cc5ccccc5)cc4F)C(=O)CC3(C)C2=O)n1 (racemic) .
## Result 101

## Task Give the measured Emax of Cn1ccc(N2CCN3C(=O)N(c4c(F)cc(C#Cc5ccccc5)cc4F)C(=O)CC3(C)C2=O)n1 (racemic) .
## Result 112

## Task Give the measured Emax of `Cc1cncnc1N1CCN2C(=O)N(c3c(F)cc(C#Cc4ccccc4)cc3F)C(=O)C[C@@]2(C)C1=O` .
## Result 132

## Task Give the measured Emax of `CC[C@@]12CC(=O)N(c3c(F)cc(C#Cc4ccccc4)cc3F)C(=O)N1CCN(c1cccnc1)C2=O` .
## Result 112

## Task Give the measured Emax of Cc1ccc(N2CCN3C(=O)N(c4c(F)cc(C#Cc5ccccc5)cc4F)C(=O)CC3(C)C2=O)nn1 (racemic) .
## Result 120

## Task Give the measured Emax of `Cc1nc(N2CCN3C(=O)N(c4c(F)cc(C#Cc5ccccc5)cc4F)C(=O)C[C@@]3(C)C2=O)cn1CC(F)(F)F` .
## Result 172

## Task Give the measured Emax of `COc1ccc(N2CCN3C(=O)N(c4c(F)cc(C#Cc5ccccc5)cc4F)C(=O)C[C@@]3(C)C2=O)cn1` .
## Result 114

## Task Give the measured Emax of `Cc1ccnc(N2CCN3C(=O)N(c4c(F)cc(C#Cc5ccccc5)cc4F)C(=O)C[C@@]3(C)C2=O)c1` .
## Result 148

## Task Give the measured Emax of CC12CC(=O)N(c3c(F)cc(C#Cc4ccccc4)cc3F)C(=O)N1CCN(Cc1cccnc1)C2=O (racemic) .
## Result 90

## Task Give the measured Emax of CC12CC(=O)N(c3c(F)cc(C#Cc4ccccc4)cc3F)C(=O)N1CCN(c1ccccn1)C2=O (racemic) .
## Result 110

## Task Give the measured Emax of `Cc1cncc(C)c1N1CCN2C(=O)N(c3c(F)cc(C#Cc4ccccc4)cc3F)C(=O)C[C@@]2(C)C1=O` .
## Result 136

## Task Give the measured Emax of CC12CC(=O)N(c3c(F)cc(C#Cc4ccccc4)cc3F)C(=O)N1CCN(c1ccncn1)C2=O (racemic) .
## Result 101

## Task Give the measured Emax of `Cn1cc(N2CCN3C(=O)N(c4c(F)cc(C#Cc5ccccc5F)cc4F)C(=O)C[C@@]3(C)C2=O)cn1` .
## Result 120

====

Exercise: state measured Emax for each of the molecules provided.
target: human mGlu4 receptor (Homo sapiens (Human)); experiment: Ca2+ mobilization in vitro assay on recombinant human mGlu4 expressed in HEK293 cells (PAM); type: cell-based; settings: HEK293; maximal response in % of maximal stimulatory effect of saturating L-AP4; read-out: Eff. (%)
Report only the number, with the unit % understood.

## Task Give the measured Emax of `COC[C@@]12CC(=O)N(c3c(F)cc(C#Cc4ccccc4)cc3F)C(=O)N1CCN(c1cnn(C)c1)C2=O` .
## Result 144

## Task Give the measured Emax of `CCn1cc(N2CCN3C(=O)N(c4c(F)cc(C#Cc5ccccc5)cc4F)C(=O)C[C@@]3(C)C2=O)cn1` .
## Result 184

## Task Give the measured Emax of `COc1ncc(N2CCN3C(=O)N(c4c(F)cc(C#Cc5ccccc5)cc4F)C(=O)C[C@@]3(C)C2=O)cn1` .
## Result 90

## Task Give the measured Emax of `CC[C@@]12CC(=O)N(c3c(F)cc(C#Cc4ccccc4)cc3F)C(=O)N1CCN(c1cnn(C)c1)C2=O` .
## Result 125

## Task Give the measured Emax of `CC(C)(C)Oc1ncc(N2CCN3C(=O)N(c4c(F)cc(C#Cc5ccccc5)cc4F)C(=O)C[C@@]3(C)C2=O)cn1` .
## Result 107

## Task Give the measured Emax of O=C1C2CC(=O)N(c3c(F)cc(C#Cc4ccccc4)cc3F)C(=O)N2CCN1c1cccnc1 (racemic) .
## Result 105

## Task Give the measured Emax of `C[C@@]12CC(=O)N(c3c(F)cc(C#Cc4ccccc4)cc3F)C(=O)N1CCN(Cc1ccc(F)cc1)C2=O` .
## Result 101

## Task Give the measured Emax of CC12CC(=O)N(c3c(F)cc(C#Cc4ccccc4)cc3F)C(=O)N1CCN(c1ccnc(Cl)c1)C2=O (racemic) .
## Result 131

## Task Give the measured Emax of Cc1ccccc1CN1CCN2C(=O)N(c3c(F)cc(C#Cc4ccccc4)cc3F)C(=O)CC2(C)C1=O (racemic) .
## Result 83

## Task Give the measured Emax of CC12CC(=O)N(c3c(F)cc(C#Cc4ccccc4)cc3F)C(=O)N1CCN(c1cccnc1)C2=O (racemic) .
## Result 122

## Task Give the measured Emax of CC12CC(=O)N(c3c(F)cc(C#Cc4ccccc4)cc3F)C(=O)N1CCN(c1ncccn1)C2=O (racemic) .
## Result 122

## Task Give the measured Emax of `C[C@@]12CC(=O)N(c3c(F)cc(C#Cc4ccccc4F)cc3F)C(=O)N1CCN(c1ccncn1)C2=O` .
## Result 90

## Task Give the measured Emax of `C[C@@]12CC(=O)N(c3c(F)cc(C#Cc4ccccc4)cc3F)C(=O)N1CCN(c1cccnn1)C2=O` .
## Result 98

## Task Give the measured Emax of Cc1cn(C)c(N2CCN3C(=O)N(c4c(F)cc(C#Cc5ccccc5)cc4F)C(=O)CC3(C)C2=O)n1 (racemic) .
## Result 107

====

Exercise: state measured Emax for each of the molecules provided.
molecular target: human mGlu4 receptor (Homo sapiens (Human), UniProt Q14833); experiment: Ca2+ mobilization in vitro assay on recombinant human mGlu4 expressed in HEK293 cells (PAM); type: cell-based; details: HEK293; maximal response in % of maximal stimulatory effect of saturating L-AP4; read-out: Eff. (%)
Sequence (Q14833 33-912): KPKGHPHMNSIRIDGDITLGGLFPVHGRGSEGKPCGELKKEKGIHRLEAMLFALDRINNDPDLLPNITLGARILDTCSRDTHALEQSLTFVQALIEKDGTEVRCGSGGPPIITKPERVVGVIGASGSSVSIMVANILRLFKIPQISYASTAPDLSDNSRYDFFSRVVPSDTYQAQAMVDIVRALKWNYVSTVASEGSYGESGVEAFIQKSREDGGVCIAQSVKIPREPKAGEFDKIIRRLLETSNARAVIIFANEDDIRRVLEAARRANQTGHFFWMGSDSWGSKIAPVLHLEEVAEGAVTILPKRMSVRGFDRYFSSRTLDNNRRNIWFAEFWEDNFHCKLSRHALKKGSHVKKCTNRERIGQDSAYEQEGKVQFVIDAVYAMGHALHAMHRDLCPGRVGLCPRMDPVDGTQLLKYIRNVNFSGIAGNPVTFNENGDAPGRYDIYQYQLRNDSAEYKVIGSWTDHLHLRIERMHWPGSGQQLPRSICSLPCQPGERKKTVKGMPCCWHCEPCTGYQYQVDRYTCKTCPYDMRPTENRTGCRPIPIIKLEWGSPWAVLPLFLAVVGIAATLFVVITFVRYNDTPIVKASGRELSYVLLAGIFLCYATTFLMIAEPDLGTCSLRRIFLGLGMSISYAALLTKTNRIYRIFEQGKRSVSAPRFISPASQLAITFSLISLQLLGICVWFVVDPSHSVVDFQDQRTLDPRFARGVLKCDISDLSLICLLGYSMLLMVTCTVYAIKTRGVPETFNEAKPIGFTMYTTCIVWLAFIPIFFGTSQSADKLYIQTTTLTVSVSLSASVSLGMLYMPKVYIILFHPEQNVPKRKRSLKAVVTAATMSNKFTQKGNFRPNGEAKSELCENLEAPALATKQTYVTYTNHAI
Report only the number, with the unit % understood.

## Task Give the measured Emax of CC12CC(=O)N(c3c(F)cc(C#Cc4ccccc4)cc3F)C(=O)N1CCN(c1nccs1)C2=O (racemic) .
## Result 97

## Task Give the measured Emax of CC12CC(=O)N(c3c(F)cc(C#Cc4ccccc4)cc3F)C(=O)N1CCN(c1ccncc1)C2=O (racemic) .
## Result 118

## Task Give the measured Emax of `Cn1cc(N2CCN3C(=O)N(c4c(F)cc(C#Cc5ccccc5)cc4F)C(=O)C[C@@]3(C)C2=O)cn1` .
## Result 135

## Task Give the measured Emax of CC12CC(=O)N(c3c(F)cc(C#Cc4ccccc4)cc3F)C(=O)N1CCN(c1ncc(C(F)(F)F)s1)C2=O (racemic) .
## Result 103

## Task Give the measured Emax of CC12CC(=O)N(c3c(F)cc(C#Cc4ccccc4)cc3Cl)C(=O)N1CCN(c1cccnc1)C2=O (racemic) .
## Result 120

## Task Give the measured Emax of Cn1cc(N2CCN3C(=O)N(c4c(F)cc(C#Cc5ccccc5)cc4Cl)C(=O)CC3(C)C2=O)cn1 (racemic) .
## Result 111

## Task Give the measured Emax of CC12CC(=O)N(c3c(F)cc(C#Cc4ccccc4)cc3F)C(=O)N1CCN(c1cncnc1)C2=O (racemic) .
## Result 120

====

target: human mGlu4 receptor (Homo sapiens (Human), UniProt Q14833); assay: Ca2+ mobilization in vitro assay on recombinant human mGlu4 expressed in HEK293 cells (PAM); assay type: cell-based; conditions: HEK293 cells, human mGlu4, in presence of EC20 of L-AP4; read-out: EC50 (nM) mGlu4PAM
Exercise: state measured EC50 for each of the compounds provided.
Report only the number, with the unit nM understood.

## Task Give the measured EC50 of CCOc1ncc(N2CCN3C(=O)N(c4c(F)cc(C#Cc5ccccc5)cc4F)C(=O)C[C@@]3(C)C2=O)cn1 [Example 39] .
## Result 96

## Task Give the measured EC50 of Cn1ncc(N2CCN3C(=O)N(c4c(F)cc(C#Cc5ccccc5)cc4F)C(=O)CC3(C)C2=O)cc1=O (racemic) [Example 51] .
## Result 191

## Task Give the measured EC50 of CC12CC(=O)N(c3c(F)cc(C#Cc4ccccc4)cc3F)C(=O)N1CCN(Cc1ccncn1)C2=O (racemic) [Example 95] .
## Result 142

## Task Give the measured EC50 of C[C@@]12CC(=O)N(c3c(F)cc(C#Cc4ccccc4)cc3F)C(=O)N1CCN(Cc1ccccc1F)C2=O [Example 89] .
## Result 149
